# System: noradrenaline transporter (NAT) in SK-N-SH cells
# assay-overview: Competitive inhibition of Imaging Agent-1 uptake in SK-N-SH cells
# Format: cell-based, human
# setup-conditions: non-radioactive competitor 0.1-100 μM, 37° C., 60 minutes, read-out: IC50 for inhibition of Imaging Agent-1 cell uptake
# Procedure: For the competitive inhibition assay, Imaging Agent-1 at 3.7 kBq was incubated in SK-N-SH cells with various concentrations (0.1, 1, 10, or 100 μM) of non-radioactive NA, MIBG or ^19F-Imaging Agent-1 (self) at 37° C. for 60 minutes. Similarly, following the incubation, Imaging Agent-1 cell uptake was determined. The IC50 value of each agent was determined using GraphPad software (v5).
readout-type: pIC50
The meaning of pIC50 here: minus log10 of the concentration in molar units.

Problem: Please look at this compound and report its pIC50: `N=C(N)NCc1cccc(I)c1`
Result: 6.68

---

# assay-overview: Tissue distribution in rats
# Format: in vivo
# setup-conditions: bolus iv injection, lung
readout-type: Rat Lung (% ID/g)
State the answer as a number, implicitly in % ID/g.

Known Rat Lung results, listed for orientation:
compound	endpoint-unit	Rat Lung
N=C(N)NCc1ccc(CF)c(Br)c1 [Example 3]	% ID/g	1.12
N=C(N)NCc1ccc(CCF)cc1 [Example 5, 1-[4-(2-fluoroethyl)benzyl]guanidine]	% ID/g	0.59

Problem: For the compound N=C1NCC(c2ccc(OCCF)cc2)N1 (centres unmarked) [Example 1] , report Rat Lung.
Result: 0.24

Problem: Quick one: give measured Rat Lung for N=C(N)NCc1ccc2cc(OCCCF)ccc2c1 [Example 12]
Result: 2.09

Problem: Give reported Rat Lung value for N=C(N)NCc1ccc(CCF)c(Br)c1 [Example 8]
Result: 0.94

---

# system-tested: human norepinephrine transporter (Homo sapiens)
# Sequence (P23975 whole entry): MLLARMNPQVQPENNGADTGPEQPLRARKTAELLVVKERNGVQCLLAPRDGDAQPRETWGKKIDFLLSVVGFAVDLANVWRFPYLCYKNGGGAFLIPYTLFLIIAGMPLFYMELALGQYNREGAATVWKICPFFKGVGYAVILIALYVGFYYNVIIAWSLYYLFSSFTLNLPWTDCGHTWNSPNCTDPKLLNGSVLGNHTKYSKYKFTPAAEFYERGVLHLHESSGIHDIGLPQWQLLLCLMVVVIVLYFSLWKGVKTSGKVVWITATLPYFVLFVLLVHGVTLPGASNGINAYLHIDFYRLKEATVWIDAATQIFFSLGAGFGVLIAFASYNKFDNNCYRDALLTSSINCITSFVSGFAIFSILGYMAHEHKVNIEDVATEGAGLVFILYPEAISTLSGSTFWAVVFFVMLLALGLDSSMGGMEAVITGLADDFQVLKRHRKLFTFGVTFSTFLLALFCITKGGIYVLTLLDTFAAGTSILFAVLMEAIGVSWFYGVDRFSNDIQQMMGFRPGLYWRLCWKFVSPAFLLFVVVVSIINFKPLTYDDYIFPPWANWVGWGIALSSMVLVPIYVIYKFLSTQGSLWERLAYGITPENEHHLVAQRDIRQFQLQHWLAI
readout-type: pKi
A value of pKi is the negative decimal logarithm of a concentration given in moles per litre.

compound	value-measured
N=C(N)NCc1ccc(CF)c(Br)c1	5.13
N=C(N)NCc1ccc2cc(OCCF)ccc2c1	6.92
N=C(N)NCCc1c[nH]c2ccc(OCCF)cc12	5.92
N=C(N)NCCc1ccc(CCCF)cc1	5.40
N=C1NCC(c2ccc(OCCF)cc2)N1 (stereo not shown)	5.14

Problem: Fill in: pKi on human norepinephrine transporter (Homo sapiens), entry `N=C(N)NCc1ccc(CCF)c(Br)c1`
Result: 4.76

Problem: Report the value of pKi obtained on human norepinephrine transporter (Homo sapiens) for N=C1NCC(c2ccc(OCCF)c(Br)c2)N1 (stereo not shown) .
Result: 4.95

---

# Tested on: PC-12 cells
# assay-overview: PC-12 binding assay (cell uptake with or without desipramine)
# Format: cell-based, rat
# setup-conditions: 0.1 μCi test agent, 60 min at 37° C., with 1 μM desipramine (nonspecific uptake)
readout-type: PC-12 (% bound) Block
Report the figure in % bound without appending any unit label.

Problem: Determine from records and report PC-12 (% bound) Block for N=C(N)NCc1ccc(CCF)c(Br)c1 [Example 8]
Result: 0.60

---

# assay-overview: Tissue distribution in rats
# Type: in vivo
# setup-conditions: bolus iv injection, blood
readout-type: Rat Blood
Please answer using the number first and the unit second.

molecule	value-measured
N=C(N)NCc1ccc(CF)c(Br)c1	0.35 ± 0.15 % ID/g
N=C(N)NCc1ccc2cc(OCCCF)ccc2c1	0.37 ± 0.05 % ID/g
N=C1NCC(c2ccc(OCCF)c(Br)c2)N1 (stereo not shown)	0.19 % ID/g
N=C(N)NCc1ccc(CCF)cc1 [Example 5, 1-[4-(2-fluoroethyl)benzyl]guanidine]	0.69 % ID/g
N=C(N)NCc1ccc2cc(OCCF)ccc2c1	0.51 ± 0.11 % ID/g
N=C1NCC(c2ccc(OCCF)cc2)N1 (stereo not shown)	0.18 % ID/g
N=C(N)NCCc1c[nH]c2ccc(OCCF)cc12	0.41 % ID/g
N=C(N)NCCc1ccc(CCCF)cc1	0.10 ± 0.01 % ID/g

Problem: Give Rat Blood for the following molecule: `N=C(N)NCc1ccc(CCF)c(Br)c1`
Result: 0.21 % ID/g

Problem: Return the recorded Rat Blood value; entry: `N=C(N)NCc1ccc(COCCF)c(Br)c1`
Result: 0.13 ± 0.02 % ID/g

---

# assay-overview: Tissue distribution in rabbits
# Assay type: in vivo
# setup-conditions: bolus iv injection, liver
# Method: Male Sprague Dawley rats (300-500 g, Taconic), and male New Zealand rabbits (3-4 kg, Covance) were used in accordance with our Institutional Animal Care and Use Committee. […] After preparation, each animal received a bolus injection of the test agent via the venous catheter. […] Tissue uptake of each agent was determined as a percentage of the injected dose per gram tissue (% ID/g).
readout-type: Rabbit Liver (% ID/g)
Respond numerically; units are % ID/g and should not be typed.

Please review the entries below; each comes with its answer.
compound-structure-string	readout-type	value-measured
N=C(N)NCc1ccc(CF)c(Br)c1	Rabbit Liver	0.02
N=C(N)NCc1ccc2cc(OCCCF)ccc2c1	Rabbit Liver	0.02
N=C(N)NCc1ccc2cc(OCCF)ccc2c1	Rabbit Liver	0.02

Problem: In one line, give reported Rabbit Liver of the entry `N=C(N)NCc1ccc(COCCF)c(Br)c1` .
Result: 0.012

---

# assay-overview: Tissue distribution in rats
# Type: in vivo
# setup-conditions: bolus iv injection, heart
// Rat Heart lookup, one value per entry
State the answer as a number, implicitly in % ID/g.

compound	Rat Heart / % ID/g
N=C(N)NCCc1ccc(CCCF)cc1	1.94
N=C(N)NCCc1c[nH]c2ccc(OCCF)cc12	0.35
N=C(N)NCc1ccc2cc(OCCCF)ccc2c1	1.93
N=C1NCC(c2ccc(OCCF)cc2)N1 (stereo not shown)	1.03
N=C(N)NCc1ccc(COCCF)c(Br)c1	1.04
N=C(N)NCc1ccc(CCF)cc1 [Example 5, 1-[4-(2-fluoroethyl)benzyl]guanidine]	1.23

Problem: Report measured Rat Heart; entry is N=C1NCC(c2ccc(OCCF)c(Br)c2)N1 (stereo not shown)
Result: 1.33

Problem: Assign Rat Heart to the following record: `N=C(N)NCc1ccc(CF)c(Br)c1`
Result: 0.71

Problem: Determine from records and report Rat Heart for `N=C(N)NCc1ccc(CCF)c(Br)c1`
Result: 1.61

Problem: Consider the compound `N=C(N)NCc1ccc2cc(OCCF)ccc2c1` and give its recorded Rat Heart.
Result: 1.74

---

Listing of recorded Rat Lung by entry.
# assay-overview: Tissue distribution in rats
# Format: in vivo
# setup-conditions: bolus iv injection, lung
Answer format reminder: number followed by unit.

Here's what some known entries look like.
compound	value-measured
N=C(N)NCCc1c[nH]c2ccc(OCCF)cc12 [Example 21]	0.38 % ID/g
N=C(N)NCCc1ccc(CCCF)cc1 [Example 33, 1-(4-(3-fluoropropyl)phenethyl)guanidine]	0.66 ± 0.11 % ID/g
N=C(N)NCc1ccc(COCCF)c(Br)c1 [Example 4]	0.34 ± 0.18 % ID/g
N=C(N)NCc1ccc2cc(OCCF)ccc2c1 [Example 11]	2.71 ± 0.51 % ID/g

Alright, here's another compound for you.
Problem: For the compound N=C1NCC(c2ccc(OCCF)c(Br)c2)N1 (centres unmarked) [Example 2] , give its reported Rat Lung.
Result: 0.94 % ID/g

---

# Test system: PC-12 cells
# assay-overview: PC-12 binding assay (cell uptake with or without desipramine)
# Assay type: cell-based, rat
# setup-conditions: 0.1 μCi test agent, 60 min at 37° C., with 1 μM desipramine (nonspecific uptake)
I'd appreciate it if you marked entries 1 (yes) when PC-12 (% bound) Block is lower than 0.6 % bound and 0 (no) when it is not.

compound	class
N=C1NCC(c2ccc(OCCF)cc2)N1 (stereo not drawn)	1 (yes)
N=C(N)NCc1ccc(CCF)cc1 [Example 5, 1-[4-(2-fluoroethyl)benzyl]guanidine]	0 (no)
N=C(N)NCc1ccc2cc(OCCCF)ccc2c1	1 (yes)
N=C(N)NCc1ccc2cc(OCCF)ccc2c1	0 (no)
N=C(N)NCCc1c[nH]c2ccc(OCCF)cc12	1 (yes)

Problem: # strict comparison: is reported PC-12 (% bound) Block < 0.6 % bound? input = `N=C(N)NCc1ccc(COCCF)c(Br)c1`
Result: 1 (yes)

Problem: Lab log: compare recorded PC-12 (% bound) Block with 0.6 % bound; is it strictly lower for `N=C(N)NCc1ccc(CF)c(Br)c1` ?
Result: 0 (no)

Problem: # check: PC-12 (% bound) Block < 0.6 % bound for `N=C(N)NCCc1ccc(CCCF)cc1`
Result: 0 (no)
